Experiment: in vitro
Settings: human
Non-standard residues stand in square brackets, D forms with d. Residues, ends and D or L forms follow the SMILES beside them. Dip = N[C@H](C(=O)O)C(c1ccccc1)c1ccccc1
Experimental Readout: viability at 24 h, 100 μg/mL

Form field viability at 24 h, 100 μg/mL, entry N=C(N)NCCC[C@@H]1NC(=O)[C@H](CCCNC(=N)N)NC(=O)[C@H](CCCNC(=N)N)NC(=O)[C@H](C(c2ccccc2)c2ccccc2)NC(=O)[C@H](Cc2c[nH]c3ccccc23)NC(=O)[C@H](C(c2ccccc2)c2ccccc2)NC(=O)[C@H](CCCNC(=N)N)NC1=O [3b, c[Arg-Arg-Arg-Arg-Dip-Trp-Dip]] (cyclo(RRRR[Dip]W[Dip])) : > 70%

----------
Experiment: in vitro
Details: human, plasma
Non-standard residues stand in square brackets, D forms with d. Residues, ends and D or L forms follow the SMILES beside them. Dip = N[C@H](C(=O)O)C(c1ccccc1)c1ccccc1
Experimental Readout: half-life at 75 μM (h)
The response must be a number in h with no trailing unit.

Form field half-life at 75 μM, entry N=C(N)NCCC[C@@H]1NC(=O)[C@H](CCCNC(=N)N)NC(=O)[C@H](CCCNC(=N)N)NC(=O)[C@H](C(c2ccccc2)c2ccccc2)NC(=O)[C@H](Cc2c[nH]c3ccccc23)NC(=O)[C@H](C(c2ccccc2)c2ccccc2)NC(=O)[C@H](CCCNC(=N)N)NC1=O [3b, c[Arg-Arg-Arg-Arg-Dip-Trp-Dip]] (cyclo(RRRR[Dip]W[Dip])) : 13

----------
Assay: in vitro
Conditions: human
Non-standard residues stand in square brackets, D forms with d. Residues, ends and D or L forms follow the SMILES beside them. Dip = N[C@H](C(=O)O)C(c1ccccc1)c1ccccc1
Experimental Readout: viability at 24 h, 250 μg/mL

Form field viability at 24 h, 250 μg/mL, entry N=C(N)NCCC[C@@H]1NC(=O)[C@H](CCCNC(=N)N)NC(=O)[C@H](CCCNC(=N)N)NC(=O)[C@H](C(c2ccccc2)c2ccccc2)NC(=O)[C@H](Cc2c[nH]c3ccccc23)NC(=O)[C@H](C(c2ccccc2)c2ccccc2)NC(=O)[C@H](CCCNC(=N)N)NC1=O [3b, c[Arg-Arg-Arg-Arg-Dip-Trp-Dip]] (cyclo(RRRR[Dip]W[Dip])) : > 50%

----------
Assay: in vitro
Conditions: human, cell viability
Non-standard residues stand in square brackets, D forms with d. Residues, ends and D or L forms follow the SMILES beside them. Dip = N[C@H](C(=O)O)C(c1ccccc1)c1ccccc1
Experimental Readout: viability at 24 h, 100 μg/mL

Form field viability at 24 h, 100 μg/mL, entry N=C(N)NCCC[C@@H]1NC(=O)[C@H](CCCNC(=N)N)NC(=O)[C@H](CCCNC(=N)N)NC(=O)[C@H](C(c2ccccc2)c2ccccc2)NC(=O)[C@H](Cc2c[nH]c3ccccc23)NC(=O)[C@H](C(c2ccccc2)c2ccccc2)NC(=O)[C@H](CCCNC(=N)N)NC1=O [3b, c[Arg-Arg-Arg-Arg-Dip-Trp-Dip]] (cyclo(RRRR[Dip]W[Dip])) : > 70%

----------
Assay: in vitro
Conditions: human
Non-standard residues stand in square brackets, D forms with d. Residues, ends and D or L forms follow the SMILES beside them. Dip = N[C@H](C(=O)O)C(c1ccccc1)c1ccccc1
Experimental Readout: viability at 24 h, 50 μg/mL

Form field viability at 24 h, 50 μg/mL, entry N=C(N)NCCC[C@@H]1NC(=O)[C@H](CCCNC(=N)N)NC(=O)[C@H](CCCNC(=N)N)NC(=O)[C@H](C(c2ccccc2)c2ccccc2)NC(=O)[C@H](Cc2c[nH]c3ccccc23)NC(=O)[C@H](C(c2ccccc2)c2ccccc2)NC(=O)[C@H](CCCNC(=N)N)NC1=O [3b, c[Arg-Arg-Arg-Arg-Dip-Trp-Dip]] (cyclo(RRRR[Dip]W[Dip])) : 81 to 89%
